Tested on: QG-56
Assay: Cytotoxicity against human QG56 cells after 4 days
Format: functional, cell-based
Settings: QG-56, 96 h
Overview of reported pIC50 across a group of compounds:
Please report pIC50 as the negative decimal logarithm of the molar concentration, giving only the number.

Consider the following illustrative entries.
{"molecular string": "COc1cc2c(cc1O)CCN[C@]21CS[C@@H]2c3c(OC(C)=O)c(C)c4c(c3[C@H](COC1=O)N1[C@@H]2[C@H]2c3c(cc(C)c(OC)c3O)C[C@@H]([C@@H]1C#N)N2C)OCO4", "experimental system": "QG-56", "pIC50": 8.41}
{"molecular string": "COC1=C(C)C(=O)C2=C(C1=O)[C@@H]1[C@@H]3CC4=C(C(=O)C(OC)=C(C)C4=O)[C@H](CNC(=O)C(C)=O)N3[C@@H](C#N)[C@H](C2)N1C", "experimental system": "QG-56", "pIC50": 8.26}
{"molecular string": "C/C=C(/C)C(=O)OC[C@H]1C2=C(C[C@H]3[C@H]4c5c(O)c(OC)c(C)c(O)c5[C@H](O)[C@@H]([C@H](C#N)N13)N4C)C(=O)C(C)=C(OC)C2=O", "experimental system": "QG-56", "pIC50": 7.96}
{"molecular string": "C/C=C(/C)C(=O)OC[C@H]1C2=C(C[C@H]3[C@H]4C5=C(C(=O)C(C)=C(OC)C5=O)[C@H](O)[C@@H]([C@H](C#N)N13)N4C)C(=O)C(C)=C(OC)C2=O", "experimental system": "QG-56", "pIC50": 7.40}

Next compound, pIC50 to be filled in.
(Q) Can you look up the measured pIC50 of C/C=C(/C)C(=O)OC[C@H]1C2=C(C[C@H]3[C@H]4C5=C(C[C@@H]([C@H](C#N)N13)N4C)C(=O)C(C)=C(OC)C5=O)C(=O)C(C)=C(OC)C2=O for me?
(A) 7.72
